Cited source for all entries: the Human Domainome abundance scans (Beltran et al. 2025)

B1: Histone-lysine N-methyltransferase SETD2, residues 2382 to 2430; numbered along this chain, Q9BYW2 (parent)
chain: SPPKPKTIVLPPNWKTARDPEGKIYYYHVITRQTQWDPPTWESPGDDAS

variants of: B1; test: abundance fitness (aPCA) (normalised: wild type 0, dead -1); higher = more abundant; growth selection in yeast, the domain comes from the species named; conditions: Homo sapiens
Use abundance fitness to assign classes; range list: low interval: < -0.4; middle interval: ≥ -0.4 and < -0.3; high interval: ≥ -0.3

# bin label for E21W
middle interval

# bin label for D47S
high interval

# bin label for R18G
low interval
